Reference source for all entries: patent US20250129027A1

I'd be grateful if you could share measured AUC for these entries.
Experiment: Pharmacokinetic study in rats, IV and oral gavage, with brain penetration
Type: in vivo, rat
Settings: Sprague Dawley, plasma; rat (SD, male), IV 1.0 mg/kg; read-out: AUC0-Y (ng h/mL), IV
Numbers only, in ng·h/mL.

# chemical-string, AUC (ng·h/mL)
rows = [
    ("COc1ccc(OC(=O)NC2CCCCCC2)cc1-c1cncc(-c2nnco2)c1", 424),
]

Please turn your attention to the following entry.
Task item: Can you share its AUC? I mean this compound: O=C(NC1CCCCC1)Oc1ccc(O)c(-c2cncc(-c3nnco3)c2)c1
Reply: 1340

###

Assay: Pharmacokinetic study in rats, IV and oral gavage, with brain penetration
Assay type: in vivo, rat
Settings: male, Sprague Dawley, brain; rat, 0.5 h; read-out: Brain/Plasma ratio (0.5 h)
reported-endpoint: Kp at 0.5 h
One number for each entry.

# chemical-string, Kp at 0.5 h
data = [
    ("COc1ccc(OC(=O)NC2CCCCCC2)cc1-c1cncc(-c2nnco2)c1", 0.15),
]

Task item: Which measured Kp at 0.5 h value corresponds to O=C(NC1CCCCC1)Oc1ccc(O)c(-c2cncc(-c3nnco3)c2)c1 ?
Reply: 0.01

###

Biological target: human recombinant FAAH (Homo sapiens (Human), UniProt O00519)
Sequence (O00519 whole entry): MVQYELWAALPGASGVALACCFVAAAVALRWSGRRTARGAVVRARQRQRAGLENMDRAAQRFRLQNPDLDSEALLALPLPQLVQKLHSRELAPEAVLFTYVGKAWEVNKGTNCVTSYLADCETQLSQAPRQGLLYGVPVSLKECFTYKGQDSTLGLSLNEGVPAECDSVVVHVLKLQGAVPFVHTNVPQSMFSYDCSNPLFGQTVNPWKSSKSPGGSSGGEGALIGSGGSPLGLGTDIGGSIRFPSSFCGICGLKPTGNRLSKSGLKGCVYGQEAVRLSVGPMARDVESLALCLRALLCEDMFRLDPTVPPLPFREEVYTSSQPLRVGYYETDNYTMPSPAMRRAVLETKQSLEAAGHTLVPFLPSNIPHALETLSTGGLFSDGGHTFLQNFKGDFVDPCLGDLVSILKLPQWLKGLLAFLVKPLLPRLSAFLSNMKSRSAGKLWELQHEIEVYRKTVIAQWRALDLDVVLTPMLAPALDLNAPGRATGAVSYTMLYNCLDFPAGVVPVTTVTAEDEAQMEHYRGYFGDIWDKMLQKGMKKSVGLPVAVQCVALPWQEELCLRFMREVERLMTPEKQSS
Test: In vitro inhibition of FAAH activity (fluorescent inhibitor screening kit, AMC arachidonoyl amide)
Assay type: biochemical
Conditions: human recombinant FAAH; read-out: Inhibition on FAAH activity (IC50)
pIC50: −log10 of the molar value.
reported-endpoint: pIC50

Some solved cases for reference:
# compound, val
records = [
    ("O=C(NC1CCCCCC1)Oc1cccc(-c2cncc(-c3nncs3)c2)c1", "7.00 to 8.00"),
    ("COc1ccc(OC(=O)NC2CCCCCC2)cc1-c1cncc(-c2ncn[nH]2)c1", "6.00 to 7.00"),
    ("CSc1ccc(OC(=O)NC2CCCC2)cc1-c1cncc(-c2nnco2)c1", "6.00 to 7.00"),
    ("COc1ccc(OC(=O)NC2CCCCC2)cc1-c1cncc(-c2nnco2)c1", "6.00 to 7.00"),
    ("CCCCCCCNC(=O)Oc1ccc(OC)c(-c2cncc(-c3nnco3)c2)c1", "7.00 to 8.00"),
    ("O=C(NCC1CCCCC1)Oc1cccc(-c2cncc(-c3ccco3)c2)c1", "7.00 to 8.00"),
]

For every item in the list below, what is its measured pIC50?
1. COc1ccc(OC(=O)NCC2CCCCC2)cc1-c1cncc(-c2ccc[nH]2)c1
2. O=C(NCc1ccccc1)Oc1ccc(O)c(-c2cncc(-c3ncn[nH]3)c2)c1
3. CCCCCCCCNC(=O)Oc1ccc(OC)c(-c2cncc(-c3nccs3)c2)c1
4. O=C(NC1CCCCCC1)Oc1cccc(-c2cncc(-c3ncn[nH]3)c2)c1
5. O=C(NC1CCCCCC1)Oc1ccc(O)c(-c2cncc(-c3ncn[nH]3)c2)c1

Reply:
1: 6.00 to 7.00; 2: 6.00 to 7.00; 3: 7.00 to 8.00; 4: 6.75; 5: 6.86

State the recorded pIC50 for every item in the following list.
1. CC1CCC(NC(=O)Oc2ccc(O)c(-c3cncc(-c4nnco4)c3)c2)CC1 (stereo not drawn)
2. COc1ccc(OC(=O)NC2CCCCCC2)cc1-c1cncc(-c2ncco2)c1
3. COc1ccc(OC(=O)NC2CCCC2)cc1-c1cncc(-c2ccno2)c1

Reply:
1. 7.00 to 8.00
2. 7.00 to 8.00
3. ~7.00
